- System: DNA
- Test Description: Binding affinity to calf thymus DNA by Benessi-Hilderbrand equation
- Format: nucleic-acid assay
- Condition Context: Bos taurus
Returns: string. Value is 1.0 if measured Kb is below 3 ×10⁴ /M, and 0.0 if it is greater than or equal to it.

>  <Structure Smiles String>
COc1cc(/C=C/C(=O)C(=Cc2cn(-c3ccccc3)nc2-c2cccc([N+](=O)[O-])c2)C(=O)/C=C/c2ccc(O)c(OC)c2)ccc1O

>  <Test System>
DNA

>  <Class Label>
0.0

$$$$
>  <Structure Smiles String>
COc1cc(/C=C/C(=N\NC(N)=O)C(=Cc2cn(-c3ccccc3)nc2-c2cccc([N+](=O)[O-])c2)C(/C=C/c2ccc(O)c(OC)c2)=N/NC(N)=O)ccc1O

>  <Test System>
DNA

>  <Class Label>
0.0

$$$$
>  <Structure Smiles String>
COc1cc(/C=C/C(=O)C(=Cc2cn(-c3ccccc3)nc2-c2ccccc2O)C(=O)/C=C/c2ccc(O)c(OC)c2)ccc1O

>  <Test System>
DNA

>  <Class Label>
1.0

$$$$
>  <Structure Smiles String>
COc1cc(/C=C/C(=N\NC(N)=O)C(=Cc2cn(-c3ccccc3)nc2-c2ccc([N+](=O)[O-])cc2)C(/C=C/c2ccc(O)c(OC)c2)=N/NC(N)=O)ccc1O

>  <Test System>
DNA

>  <Class Label>
1.0

$$$$
>  <Structure Smiles String>
O=Cc1cn(-c2ccccc2)nc1-c1ccc(Cl)cc1

>  <Test System>
DNA

>  <Class Label>
0.0

$$$$
>  <Structure Smiles String>
COc1cc(/C=C/C(=O)C(=Cc2cn(-c3ccccc3)nc2-c2ccc([N+](=O)[O-])cc2)C(=O)/C=C/c2ccc(O)c(OC)c2)ccc1O

>  <Test System>
DNA

>  <Class Label>
1.0

$$$$

---

- Test system: DNA
- Test Description: Binding affinity to calf thymus DNA assessed as hypochromicity by UV-vis spectroscopic analysis relative to control
- Assay type: nucleic-acid assay
- Design: concentration or dose not given beside the values
- Condition Context: Bos taurus
Returns: string. Value is 1 if measured Activity is below 8%, and -1 if it is greater than or equal to it.

>  <Structure Smiles String>
COc1cc(/C=C/C(=N\NC(N)=O)C(=Cc2cn(-c3ccccc3)nc2-c2ccc(Cl)cc2)C(/C=C/c2ccc(O)c(OC)c2)=N/NC(N)=O)ccc1O

>  <Class Label>
-1

$$$$
>  <Structure Smiles String>
COc1cc(/C=C/C(=O)C(=Cc2cn(-c3ccccc3)nc2-c2ccccc2O)C(=O)/C=C/c2ccc(O)c(OC)c2)ccc1O

>  <Class Label>
-1

$$$$
>  <Structure Smiles String>
O=Cc1cn(-c2ccccc2)nc1-c1ccccc1O

>  <Class Label>
1

$$$$
>  <Structure Smiles String>
O=Cc1cn(-c2ccccc2)nc1-c1cccc([N+](=O)[O-])c1

>  <Class Label>
1

$$$$
>  <Structure Smiles String>
O=Cc1cn(-c2ccccc2)nc1-c1ccc([N+](=O)[O-])cc1

>  <Class Label>
1

$$$$
>  <Structure Smiles String>
COc1cc(/C=C/C(=O)C(=Cc2cn(-c3ccccc3)nc2-c2cccc([N+](=O)[O-])c2)C(=O)/C=C/c2ccc(O)c(OC)c2)ccc1O

>  <Class Label>
-1

$$$$
>  <Structure Smiles String>
COc1cc(/C=C/C(=N\NC(N)=O)C(=Cc2cn(-c3ccccc3)nc2-c2cccc([N+](=O)[O-])c2)C(/C=C/c2ccc(O)c(OC)c2)=N/NC(N)=O)ccc1O

>  <Class Label>
-1

$$$$
>  <Structure Smiles String>
COc1cc(/C=C/C(=N\NC(N)=O)C(=Cc2cn(-c3ccccc3)nc2-c2ccccc2O)C(/C=C/c2ccc(O)c(OC)c2)=N/NC(N)=O)ccc1O

>  <Class Label>
-1

$$$$
>  <Structure Smiles String>
COc1cc(/C=C/C(=O)C(=Cc2cn(-c3ccccc3)nc2-c2ccc([N+](=O)[O-])cc2)C(=O)/C=C/c2ccc(O)c(OC)c2)ccc1O

>  <Class Label>
-1

$$$$
>  <Structure Smiles String>
O=Cc1cn(-c2ccccc2)nc1-c1ccc(Cl)cc1

>  <Class Label>
1

$$$$
